systemTested: Vascular endothelial growth factor receptor 2 (Homo sapiens)
assayComment: Inhibition of KDR (unknown origin) at 500 nM

>  <structureString>
CN(C)CCNC(=O)c1ccc(-c2cc3c(N[C@H](CO)c4ccccc4)ncnc3s2)cc1

>  <measurementUnits>
%

>  <inhibition>
10

$$$$
>  <structureString>
COc1cc(CO)ccc1-c1cc2c(Nc3ccccc3)ncnc2s1

>  <measurementUnits>
%

>  <inhibition>
10

$$$$
>  <structureString>
COc1ccc(C(=O)NCCN(C)C)cc1-c1cc2c(N[C@H](C)c3ccccc3)ncnc2s1

>  <measurementUnits>
%

>  <inhibition>
10

$$$$

---

systemTested: Protein kinase C theta type (Homo sapiens) (UniProt Q04759)
Sequence (Q04759 whole entry, looked up): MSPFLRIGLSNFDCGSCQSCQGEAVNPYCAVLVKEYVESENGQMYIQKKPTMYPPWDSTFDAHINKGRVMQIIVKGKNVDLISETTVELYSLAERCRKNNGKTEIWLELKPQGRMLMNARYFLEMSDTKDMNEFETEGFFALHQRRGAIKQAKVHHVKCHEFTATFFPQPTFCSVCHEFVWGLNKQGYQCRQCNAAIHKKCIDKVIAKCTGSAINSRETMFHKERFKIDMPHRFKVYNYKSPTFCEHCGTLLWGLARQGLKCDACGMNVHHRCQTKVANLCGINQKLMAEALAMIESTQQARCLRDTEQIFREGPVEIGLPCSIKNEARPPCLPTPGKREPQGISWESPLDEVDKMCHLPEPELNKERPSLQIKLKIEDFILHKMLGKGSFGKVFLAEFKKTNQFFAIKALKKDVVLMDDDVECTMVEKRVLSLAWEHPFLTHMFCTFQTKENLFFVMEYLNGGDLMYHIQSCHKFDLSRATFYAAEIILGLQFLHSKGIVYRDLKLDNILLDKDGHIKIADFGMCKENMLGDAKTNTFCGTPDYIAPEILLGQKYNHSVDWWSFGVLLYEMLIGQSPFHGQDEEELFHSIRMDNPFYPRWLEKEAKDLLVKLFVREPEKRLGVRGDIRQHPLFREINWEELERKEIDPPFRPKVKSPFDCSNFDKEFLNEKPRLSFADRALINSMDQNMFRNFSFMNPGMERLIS
assayComment: Inhibition of PRKCQ (unknown origin) at 500 nM
Listed below: inhibition values for each entry.

>  <structureString>
C[C@@H](Nc1ncnc2sc(-c3ccc(C(=O)NCCN(C)C)cc3)cc12)c1ccccc1

>  <inhibition (%)>
-5

$$$$
>  <structureString>
COc1cc(C(N)=O)ccc1-c1cc2c(N[C@H](CO)c3ccccc3)ncnc2s1

>  <inhibition (%)>
-2

$$$$
>  <structureString>
CN(C)CCNC(=O)c1ccc(-c2cc3c(N[C@H](CO)c4ccccc4)ncnc3s2)cc1

>  <inhibition (%)>
12

$$$$
>  <structureString>
C[C@@H](Nc1ncnc2sc(-c3ccccc3C(N)=O)cc12)c1ccccc1

>  <inhibition (%)>
-1

$$$$
>  <structureString>
COc1cc(CO)ccc1-c1cc2c(N[C@H](CO)c3ccccc3)ncnc2s1

>  <inhibition (%)>
1

$$$$
>  <structureString>
COc1ccc(C(=O)NCCN(C)C)cc1-c1cc2c(N[C@H](C)c3ccccc3)ncnc2s1

>  <inhibition (%)>
0

$$$$

---

systemTested: Receptor tyrosine-protein kinase erbB-4 (Homo sapiens)
assayComment: Inhibition of ERBB4 (unknown origin) at 500 nM
Listed here: items and their measured inhibition.
measurementType: inhibition (%)

>  <structureString>
C#Cc1cccc(Nc2ncnc3sc(-c4ccc(CO)cc4OC)cc23)c1

>  <measurementType>
inhibition

>  <result>
12

$$$$
>  <structureString>
C[C@@H](Nc1ncnc2sc(-c3ccc(C(=O)NCCN(C)C)cc3)cc12)c1ccccc1

>  <measurementType>
inhibition

>  <result>
14

$$$$
>  <structureString>
COc1cc(CO)ccc1-c1cc2c(Nc3ccc(F)c(Cl)c3)ncnc2s1

>  <measurementType>
inhibition

>  <result>
31

$$$$

---

systemTested: Mitogen-activated protein kinase 8 (Homo sapiens)
assayComment: Inhibition of MAPK8 (unknown origin) at 500 nM
Reported inhibition values follow for various molecules

>  <structureString>
C#Cc1cccc(Nc2ncnc3sc(-c4ccc(CO)cc4OC)cc23)c1

>  <inhibition, %>
3

$$$$
>  <structureString>
COc1cc(CO)ccc1-c1cc2c(N[C@H](CO)c3ccccc3)ncnc2s1

>  <inhibition, %>
14

$$$$
>  <structureString>
COc1cc(C(N)=O)ccc1-c1cc2c(N[C@H](CO)c3ccccc3)ncnc2s1

>  <inhibition, %>
42

$$$$

---

systemTested: Serine/threonine-protein kinase pim-2 (Homo sapiens) (UniProt Q9P1W9)
Sequence (Q9P1W9 whole entry, looked up): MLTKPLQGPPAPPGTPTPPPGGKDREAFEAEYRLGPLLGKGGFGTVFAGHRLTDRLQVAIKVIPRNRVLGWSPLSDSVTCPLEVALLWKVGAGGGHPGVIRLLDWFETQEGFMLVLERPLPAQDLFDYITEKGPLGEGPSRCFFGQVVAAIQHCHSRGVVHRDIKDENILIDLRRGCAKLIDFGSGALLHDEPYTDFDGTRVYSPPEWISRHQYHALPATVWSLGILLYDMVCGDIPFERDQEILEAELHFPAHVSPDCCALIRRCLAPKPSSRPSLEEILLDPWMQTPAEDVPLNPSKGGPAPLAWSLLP
assayComment: Inhibition of PIM2 (unknown origin) at 500 nM

>  <structureString>
COc1ccc(C(=O)NCCN(C)C)cc1-c1cc2c(N[C@H](C)c3ccccc3)ncnc2s1

>  <inhibition>
-4%

$$$$
>  <structureString>
COc1cc(CO)ccc1-c1cc2c(N[C@H](CO)c3ccccc3)ncnc2s1

>  <inhibition>
1%

$$$$
>  <structureString>
C[C@@H](Nc1ncnc2sc(-c3ccc(C(=O)NCCN(C)C)cc3)cc12)c1ccccc1

>  <inhibition>
3%

$$$$

Values were extracted from ChEMBL document CHEMBL3758163.
